system: Staphylococcus aureus; assay: Antibacterial activity against Staphylococcus aureus ATCC 25923 assessed as growth inhibition incubated for 18 hrs by broth dilution method; assay type: functional; details: ATCC 25923, 18 h
As shown below, each of these compounds has a reported MIC value.
Please reply with the bare figure in µM and do not write the unit itself.

Please review the entries below; each comes with its answer.
[[record]]
chemical_smiles = "O=C(NCCCNCCCCNCCCNC(=O)C(=O)c1c[nH]c2cc(Br)ccc12)C(=O)c1c[nH]c2cc(Br)ccc12"
value_type = "MIC"
experimental_value = 6.25

[[record]]
chemical_smiles = "COC(=O)c1ccc2[nH]cc(C(=O)C(=O)NCCCNCCCCNCCCNC(=O)C(=O)c3c[nH]c4ccc(C(=O)OC)cc34)c2c1.O=C(O)C(F)(F)F.O=C(O)C(F)(F)F"
value_type = "MIC"
experimental_value = 100


Looking for the measured MIC of `O=C(NCCCNCCCCNCCCNC(=O)C(=O)c1c[nH]c2c(F)cccc12)C(=O)c1c[nH]c2c(F)cccc12.O=C(O)C(F)(F)F.O=C(O)C(F)(F)F` , can you help?
25

Also, `O=C(NCCCNCCCCNCCCNC(=O)C(=O)c1c[nH]c2cc(C(F)(F)F)ccc12)C(=O)c1c[nH]c2cc(C(F)(F)F)ccc12.O=C(O)C(F)(F)F.O=C(O)C(F)(F)F` please.
50

Also, `COc1cccc2c(C(=O)C(=O)NCCCNCCCCNCCCNC(=O)C(=O)c3c[nH]c4c(OC)cccc34)c[nH]c12` please.
15

Also, `O=C(NCCCNCCCCNCCCNC(=O)C(=O)c1c[nH]c2cc(Cl)ccc12)C(=O)c1c[nH]c2cc(Cl)ccc12.O=C(O)C(F)(F)F.O=C(O)C(F)(F)F` please.
6.25

Also, `CN[C@@H]1[C@H](O[C@H]2[C@H](O[C@H]3[C@H](O)[C@@H](O)[C@H](N=C(N)N)[C@@H](O)[C@@H]3N=C(N)N)O[C@@H](C)[C@]2(O)C=O)O[C@@H](CO)[C@H](O)[C@H]1O` please.
21.5

Also, `O=C(NCCCNCCCCNCCCNC(=O)C(=O)c1c[nH]c2ccc(F)cc12)C(=O)c1c[nH]c2ccc(F)cc12.O=C(O)C(F)(F)F.O=C(O)C(F)(F)F` please.
25

Also, `O=C(NCCCNCCCCNCCCNC(=O)C(=O)c1c[nH]c2ccc(Br)cc12)C(=O)c1c[nH]c2ccc(Br)cc12.O=C(O)C(F)(F)F.O=C(O)C(F)(F)F` please.
3.12

====

assay: Cytotoxicity against human HEK293 cells measured after 20 hrs by resazurin dye based fluorescence assay; type: cell-based
value-type: CC50 at 20 h

Please review the entries below; each comes with its answer.
[[record]]
chemical_smiles = "N#Cc1ccc2c(C(=O)C(=O)NCCCNCCCCNCCCNC(=O)C(=O)c3c[nH]c4cc(C#N)ccc34)c[nH]c2c1.O=C(O)C(F)(F)F.O=C(O)C(F)(F)F"
value_type = "CC50 at 20 h"
experimental_value = "> 38.9 µM"

[[record]]
chemical_smiles = "Cc1cccc2c(C(=O)C(=O)NCCCNCCCCNCCCNC(=O)C(=O)c3c[nH]c4c(C)cccc34)c[nH]c12.O=C(O)C(F)(F)F.O=C(O)C(F)(F)F"
value_type = "CC50 at 20 h"
experimental_value = "> 40 µM"


Looking for the measured CC50 at 20 h of `O=C(NCCCNCCCCNCCCNC(=O)C(=O)c1c[nH]c2cccc(F)c12)C(=O)c1c[nH]c2cccc(F)c12` , can you help?
> 55 µM

Also, `O=C(NCCCNCCCCNCCCNC(=O)C(=O)c1c[nH]c2ccc(F)cc12)C(=O)c1c[nH]c2ccc(F)cc12.O=C(O)C(F)(F)F.O=C(O)C(F)(F)F` please.
> 39.6 µM

Also, `COC(=O)c1ccc2[nH]cc(C(=O)C(=O)NCCCNCCCCNCCCNC(=O)C(=O)c3c[nH]c4ccc(C(=O)OC)cc34)c2c1.O=C(O)C(F)(F)F.O=C(O)C(F)(F)F` please.
> 36 µM
